# target.system: T1, BSA-conjugated Aβ heptapeptide FFAEDVC (C-terminal Cys coupled to NSMP-activated BSA);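 note: ELISA of antibody at 10 or 2 µg/ml binding plate-coated BSA–peptide conjugates, detected with HRP anti-human Ig and TMB colour, mock-treated BSA without peptide as negative control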
# T1 construct: also called Peptide 19-24
# T1 peptide: FFAEDVC
# protocol.details: ELISA
reported.endpoint: Peptide-ratio 19-24/2-7
Give bare numbers.

{"binder": "MS-Roche #7.9.H3 Fab (Fab, V domains shown, assembled) VH: QVQLVESGGGLVQPGGSLRLSCAASGFTFSSYAMSWVRQAPGKGLEWVSAINYQGNRKYYADSVKGRFTISRDNSKNTLYLQMNSLRAEDTAVYYCARGKGNTHKPYGYVRYFDVWGQGTLVTVSS VL: DIVLTQSPATLSLSPGERATLSCRASQSVSSSYLAWYQQKPGQAPRLLIYGASSRATGVPARFSGSGSGTDFTLTISSLEPEDFATYYCLQIYNMPITFGQGTKVEIKR", "reported.endpoint": "Peptide-ratio 19-24/2-7", "experimental.result": 0.27}

Ask: // query Peptide-ratio 19-24/2-7 value for entry MS-Roche #7.12 Fab (Fab, V domains shown) VH: QVQLVESGGGLVQPGGSLRLSCAASGFTFSSYGMSWVRQAPGKGLEWVSNISGSGSSTYYADSVKGRFTISRDNSKNTLYLQMNSLRAEDTAVYYCARGKGNTHKPYGYVRYFDVWGQGTLVTVSS VL: DIVLTQSPATLSLSPGERATLSCRASQYVSSPYLAWYQQKPGQAPRLLISGSSNRATGVPARFSGSGSGTDFTLTISSLEPEDFAVYYCLQLYNIPNTFGQGTKVEIKR
Result: 0.18
